Listed here: items and their measured CC50.
assay comment: Tetrazolium-based cytotoxicity assay in human embryonic lung fibroblasts
applied conditions: human, human embryonic lung fibroblasts (HELFs), primary cells
property label: CC50 (µM)

> print(dat)
                                smiles.text  censoring.sign  recorded.value
1  CC(C)=CCOc1ccc(-c2coc3c4c(cc(O)c3c2=O)OC(C)(C)C=C4)cc1               >             100
2  CC(C)=CCOc1ccc(-c2coc3c4c(ccc3c2=O)OC(C)(C)C=C4)cc1               =               9
3  COc1ccc2c(=O)c3c(oc2c1)COc1cc2c(cc1-3)OCO2               >             100
4  COc1ccc2c(=O)c(-c3cc4c(cc3OC)OCO4)coc2c1               =            47.1
5  COc1cc2c(cc1-c1coc3c4c(c(OC)cc3c1=O)OC(C)(C)C=C4)OCO2               >             100

====

assay comment: in vitro
applied conditions: human
property label: CC50 at 3 days (µM)

> print(dat)
                                smiles.text  recorded.value
1  COc1cc2c(cc1OC)[C@]1(O)C(=O)c3ccc4c(c3O[C@@H]1CO2)C=CC(C)(C)O4            12.5
